Tested on: RPMI-8226
Measured property: CC50

INSERT INTO results (molecule, experimental_target, measured_property, measured_value) VALUES
  ('C=C1C(=O)O[C@H]2[C@H]1CC/C(COC(=O)c1cc3ccccc3[nH]1)=C\CC[C@@]1(C)O[C@@H]21 [BS-1-28]', 'RPMI-8226', 'CC50', '> 100 µM');

* * *

System: HCC-2998
Measured property: CC50

INSERT INTO results (smiles_data, measured_value) VALUES
  ('C=C1C(=O)O[C@H]2[C@H]1CC/C(COC(=O)c1cc3ccccc3[nH]1)=C\CC[C@@]1(C)O[C@@H]21', '8.77 µM');
